Recorded ABSOLUTE EOSINOPHIL for the following compounds
Species on record: Rattus norvegicus
Assay: DrugMatrix - Regimen: Daily Repeat
Type: toxicity, organism-based, Sprague-Dawley
Parameters: regimen Daily Repeat, gender Male, age 6-8 weeks
Details: in vivo, po, 0 mg/kg, 72 h, tissue Blood, route oral GAVAGE, dose level Control, time 3 day, vehicle .5 % CMC
Kindly format the answer as number then unit.

# Compound, Value kind, Val
records = [
    ("COc1ccccc1OCC(O)COC(N)=O (centres undefined)", "ABSOLUTE EOSINOPHIL", "171.33 CELLS/uL"),
]

Query: Dear colleague, please send me the reported ABSOLUTE EOSINOPHIL for `CCCCC1C(=O)N(c2ccccc2)N(c2ccccc2)C1=O` when you can.
Reply: 35.67 CELLS/uL

Query: Tell me ABSOLUTE EOSINOPHIL reported for `C[C@@H](O)[C@H]1C(=O)N2C(C(=O)O)=C(S[C@@H]3CN[C@H](C(=O)N(C)C)C3)[C@H](C)[C@H]12`
Reply: 222.83 CELLS/uL

----------
Species: Rattus norvegicus
Assay: DrugMatrix - Regimen: Daily Repeat
Assay type: toxicity, organism-based, Sprague-Dawley
Design: regimen Daily Repeat, gender Male, age 6-8 weeks
Conditions: in vivo, po, 0 mg/kg, 120 h, tissue Blood, route oral GAVAGE, dose level Control, time 5 day, vehicle 100 % WATER
Entries whose ABSOLUTE LYMPHOCYTE is below 10000 CELLS/uL take Criterion met; entries at or above 10000 CELLS/uL take Criterion not met.

For orientation, consider the following solved cases.
# Compound, Assigned label
rows = [
    ("O=C(O)c1cccnc1", "Criterion not met"),
    ("CCCCCCCCCCCCCCCC[n+]1ccccc1.[Br-]", "Criterion not met"),
    ("Nc1ccc(S(=O)(=O)Nc2nccs2)cc1", "Criterion met"),
    ("O=P1(N(CCCl)CCCl)NCCCO1 (centres undefined) [CYCLOPHOSPHAMIDE ANHYDROUS]", "Criterion met"),
    ("CCCc1nn(C)c2c(=O)[nH]c(-c3cc(S(=O)(=O)N4CCN(C)CC4)ccc3OCC)nc12", "Criterion not met"),
]

In the following, a different compound is considered.
Query: In plain terms, does `CC[C@H]1OC(=O)[C@H](C)[C@@H](O[C@H]2C[C@@](C)(OC)[C@@H](O)[C@H](C)O2)[C@H](C)[C@@H](O[C@@H]2O[C@H](C)C[C@H](N(C)C)[C@H]2O)[C@](C)(O)C[C@@H](C)CN(C)[C@H](C)[C@@H](O)[C@]1(C)O` come in under 10000 CELLS/uL for ABSOLUTE LYMPHOCYTE?
Reply: Criterion met

----------
Species: Rattus norvegicus
Experiment: DrugMatrix - Regimen: Daily Repeat
Assay type: toxicity, organism-based, Sprague-Dawley
Design: regimen Daily Repeat, gender Male, age 6-8 weeks
Conditions: in vivo, po, 0 mg/kg, […], tissue Blood, route oral GAVAGE, dose level Control, time 28 day, vehicle .5 % CMC
Listed here are molecules together with their documented ABSOLUTE MONOCYTE.
Dear colleague, please return just the value in cells/µL, with no unit written.

# Molecule, ABSOLUTE MONOCYTE (cells/µL)
measured = [
    ("O=c1cc(-c2ccccc2)oc2ccc3ccccc3c12 [BETA-NAPHTHOFLAVONE]", 190),
]

Below: the item to evaluate.
Query: Look up and state reported ABSOLUTE MONOCYTE for Clc1cc2c(cc1Cl)Oc1cc(Cl)c(Cl)cc1O2 [2,3,7,8-TETRACHLORODIBENZO-P-DIOXIN]
Reply: 190

----------
Organism: Rattus norvegicus
Experiment: DrugMatrix - Regimen: Daily Repeat
Format: toxicity, organism-based, Sprague-Dawley
Design: regimen Daily Repeat, gender Male, age 6-8 weeks
Conditions: in vivo, po, 1500 mg/kg, 72 h, tissue Plasma, route oral GAVAGE, dose level High, time 3 day, vehicle .5 % CMC
Collected TOTAL PROTEIN values appear next to each entry.

# Molecule, TOTAL PROTEIN
measured = [
    ("CCOC(=O)[C@H](CCc1ccccc1)N[C@@H](C)C(=O)N1CCC[C@H]1C(=O)O", "6 G/DL"),
    ("CC(C)(Sc1cc(C(C)(C)C)c(O)c(C(C)(C)C)c1)Sc1cc(C(C)(C)C)c(O)c(C(C)(C)C)c1 [PROBUCOL]", "5.83 G/DL"),
    ("O=c1cc(-c2ccccc2)oc2ccc3ccccc3c12 [BETA-NAPHTHOFLAVONE]", "5.9 G/DL"),
    ("C[C@@H](O)[C@H]1C(=O)N2C(C(=O)O)=C(S[C@@H]3CN[C@H](C(=O)N(C)C)C3)[C@H](C)[C@H]12 [MEROPENEM]", "5.9 G/DL"),
]

# context switch: different molecule, same TOTAL PROTEIN
Query: Give reported TOTAL PROTEIN value for Nc1nc2c(c(=O)[nH]1)N(C=O)C(CNc1ccc(C(=O)N[C@@H](CCC(=O)O)C(=O)O)cc1)CN2 (stereo not given in full) [LEUCOVORIN]
Reply: 6 G/DL

----------
Species on record: Rattus norvegicus
Assay: DrugMatrix - Regimen: Daily Repeat
Format: toxicity, organism-based, Sprague-Dawley
Design: regimen Daily Repeat, gender Male, age 6-8 weeks
Details: in vivo, po, 0 mg/kg, 120 h, tissue Blood, route oral GAVAGE, dose level Control, time 5 day, vehicle 100 % SALINE
Value kind: ABSOLUTE SEGMENTED NEUTROPHIL
Answer by giving the amount and then stating its unit.

# Compound, ABSOLUTE SEGMENTED NEUTROPHIL
data = [
    ("CCCc1nn(C)c2c(=O)[nH]c(-c3cc(S(=O)(=O)N4CCN(C)CC4)ccc3OCC)nc12", "689 CELLS/uL"),
    ("Cc1cc(CC(=O)O)n(C)c1C(=O)c1ccc(Cl)cc1 [ZOMEPIRAC]", "864.5 CELLS/uL"),
    ("Oc1ccccc1O", "864.5 CELLS/uL"),
]

Now, please, on to the next compound.
Query: Determine from records and report ABSOLUTE SEGMENTED NEUTROPHIL for `CC(=O)OCC(CCn1cnc2cnc(N)nc21)COC(C)=O`
Reply: 689 CELLS/uL

----------
Quick list: SODIUM per entry.
Organism: Rattus norvegicus
Assay: DrugMatrix - Regimen: Daily Repeat
Type: toxicity, organism-based, Sprague-Dawley
Design: regimen Daily Repeat, gender Male, age 6-8 weeks
Conditions: in vivo, po, 0 mg/kg, 120 h, tissue Plasma, route oral GAVAGE, dose level Control, time 5 day, vehicle 100 % SALINE
Express the result in MEQ/L but write the number alone.

Query: Item `CC(=O)OCC(CCn1cnc2cnc(N)nc21)COC(C)=O` : provide SODIUM
Reply: 145.7

Query: For the compound Cc1cc(CC(=O)O)n(C)c1C(=O)c1ccc(Cl)cc1 [ZOMEPIRAC] , give its measured SODIUM value.
Reply: 151.4

Query: Identify measured SODIUM corresponding to `Oc1ccccc1O`
Reply: 151.4

Query: Provide one value: measured SODIUM of `CCCc1nn(C)c2c(=O)[nH]c(-c3cc(S(=O)(=O)N4CCN(C)CC4)ccc3OCC)nc12`
Reply: 145.7

----------
Species: Rattus norvegicus
Experiment: DrugMatrix - Regimen: Daily Repeat
Assay type: toxicity, organism-based, Sprague-Dawley
Set-up: regimen Daily Repeat, gender Male, age 6-8 weeks
Details: in vivo, po, 0 mg/kg, 72 h, tissue Blood, route oral GAVAGE, dose level Control, time 3 day, vehicle .5 % CMC
Value kind: BASOPHIL (%)
Report as a plain number; the unit % is understood.

# Compound, Value kind, Val
data = [
    ("COc1ccccc1OCC(O)COC(N)=O (centres undefined)", "BASOPHIL", 0),
    ("C[C@]12C/C(=C/O)C(=O)C[C@@H]1CC[C@@H]1[C@@H]2CC[C@@]2(C)[C@H]1CC[C@]2(C)O", "BASOPHIL", 0.68),
    ("CC(C(=O)O)c1ccc(-c2ccccc2)c(F)c1 (centres undefined)", "BASOPHIL", 0),
    ("Cc1cnc(C(=O)NCCc2ccc(S(=O)(=O)NC(=O)NC3CCCCC3)cc2)cn1 [GLIPIZIDE]", "BASOPHIL", 0),
]

Query: Consider the compound `COc1ccc(/C=C/C(=O)Nc2ccccc2C(=O)O)cc1OC` and give its recorded BASOPHIL.
Reply: 0

Query: Check the records and state BASOPHIL for `Clc1cc2c(cc1Cl)Oc1cc(Cl)c(Cl)cc1O2`
Reply: 0.52

Query: Provide only the value of recorded BASOPHIL for `CCOC(=O)[C@H](CCc1ccccc1)N[C@@H](C)C(=O)N1Cc2ccccc2C[C@H]1C(=O)O`
Reply: 0

Query: For the compound `CCCCC1C(=O)N(c2ccccc2)N(c2ccccc2)C1=O` , give its reported BASOPHIL.
Reply: 0

Query: Report BASOPHIL, nothing else, for this compound: `CC[C@]1(O)CC[C@H]2[C@@H]3CCC4=CCCC[C@@H]4[C@H]3CC[C@@]21C`
Reply: 0.17

Query: Write down BASOPHIL measured for item `CO[C@H]1C[C@@H]2CC[C@@H](C)[C@@](O)(O2)C(=O)C(=O)N2CCCC[C@H]2C(=O)O[C@H]([C@H](C)C[C@@H]2CC[C@@H](O)[C@H](OC)C2)CC(=O)[C@H](C)/C=C(\C)[C@@H](O)[C@@H](OC)C(=O)[C@H](C)C[C@H](C)/C=C/C=C/C=C/1C`
Reply: 0

Query: Give the reported value of BASOPHIL for this record: `CN1C(=O)CN=C(c2ccccc2)c2cc(Cl)ccc21`
Reply: 0

Query: Read the entry `C=C(CC)C(=O)c1ccc(OCC(=O)O)c(Cl)c1Cl` and write its reported BASOPHIL.
Reply: 0

Query: Report BASOPHIL for `O=c1cc(-c2ccccc2)oc2ccc3ccccc3c12`
Reply: 0.52

Query: Specify reported BASOPHIL for the compound shown: `C[C@@H](O)[C@H]1C(=O)N2C(C(=O)O)=C(S[C@@H]3CN[C@H](C(=O)N(C)C)C3)[C@H](C)[C@H]12`
Reply: 0

Provenance of the data: ChEMBL document CHEMBL3885881
